# system-under-test: HIS-NDM-1 (New Delhi metallo-beta-lactamase 1) (E. coli, UniProt C7C422 29-270)
# Sequence (C7C422 29-270): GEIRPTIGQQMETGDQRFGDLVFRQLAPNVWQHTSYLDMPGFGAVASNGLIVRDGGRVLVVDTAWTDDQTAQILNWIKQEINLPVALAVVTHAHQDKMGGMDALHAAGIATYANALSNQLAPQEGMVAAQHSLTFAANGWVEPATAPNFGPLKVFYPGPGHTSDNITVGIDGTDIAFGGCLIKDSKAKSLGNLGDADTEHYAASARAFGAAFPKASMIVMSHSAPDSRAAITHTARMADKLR
# assay-name: MST; 20 mM Tris-HCl pH 7.4, 140 mM NaCl, 5 mM MgCl2, 1 mM CaCl2, 1 mM KCl; FLAA/MST with 0.1% BSA and 0.05% Tween 20 (FLAA at RT); SPR without BSA, 0.005% Tween 20
# assay-conditions: protein: commercial; tags: N-terminal His6; label: 5'-BiotinTEG (SPR); 5'-Cy5 (MST); none (FLAA)
measured-attribute: Kd (µM)

binder: NDM1-H14.2_43 (ssDNA) DNA: GTATCTGGTGGTCTATGGCCGCTATCCGCAATCTGTCTCTTTTCTTTATTCTTTTACTCACCGCATAGACGACGAAGAAC
measured-attribute: Kd
output-unit: µM
test-result: 2.82
